# Assay type: in vivo, human
# condition context: male, human, plasma, oral, Tmax, Day-1
assay endpoint: Tmax (h)
Just the number please, in h, no unit attached.

What value of measured Tmax is listed for C[C@@H]1CC[C@H]2[C@@H](C)C(=O)O[C@@H]3O[C@@]4(C)CC[C@@H]1[C@]32OO4 ?
1

* * *

# measurement protocol: Enzyme kinetics of ART metabolism in human liver microsomes
# Format: in vitro ADME
# condition context: CLint,H, substrate depletion, Vmax/Km, HLMs 0.5 mg/mL, 15 min
assay endpoint: microsomal CLint (µL/min/mg)
Just the number please, in µL/min/mg, no unit attached.

What value of measured microsomal CLint is listed for C[C@@H]1CC[C@H]2[C@@H](C)C(=O)O[C@@H]3O[C@@]4(C)CC[C@@H]1[C@]32OO4 ?
30.3

* * *

# Assay type: in vivo, human
# condition context: male, human, plasma, po, Cmax, after the first oral dose; plasma
assay endpoint: Cmax (nM)
Just the number please, in nM, no unit attached.

What value of measured Cmax is listed for C[C@@H]1CC[C@H]2[C@@H](C)C(=O)O[C@@H]3O[C@@]4(C)CC[C@@H]1[C@]32OO4 ?
207

* * *

# measurement protocol: Plasma protein binding by ultrafiltration
# Type: in vitro ADME
# condition context: human, pooled human plasma
assay endpoint: fraction unbound at 0.6 μM

What value of measured fraction unbound at 0.6 μM is listed for C[C@@H]1CC[C@H]2[C@@H](C)C(=O)O[C@@H]3O[C@@]4(C)CC[C@@H]1[C@]32OO4 ?
0.251
